Cited source for all entries: patent US12642794B2

method_notes: HBEC Part B pharmacokinetics, participants with PD
Assay type: in vivo, human
details: human, in vivo, oral, 75 mg, participants with PD, Day 14, LY 75 mg (N = 8); read-out: tmax, median
reported_property: Tmax (h)
Answers are plain numbers, in h.

What the record says about `C[C@H]1c2cccc(CCC(C)(C)O)c2C[C@H](CO)N1C(=O)Cc1c(Cl)cccc1Cl` : Tmax is 2

---

method_notes: HBEC Part A pharmacokinetics, healthy subjects
Assay type: in vivo, human
details: human, in vivo, oral, Day 14, LY 150 mg (N = 9), geometric mean, read-out: CLr (renal clearance) (converted)
reported_property: CL renal (mL/min)
Answers are plain numbers, in mL/min.

# CL renal of `C[C@H]1c2cccc(CCC(C)(C)O)c2C[C@H](CO)N1C(=O)Cc1c(Cl)cccc1Cl` = 0.0567

---

method_notes: HBEC Part A pharmacokinetics, healthy subjects
Assay type: in vivo, human
details: human, in vivo, oral, Day 14, LY 15 mg (N = 9), read-out: tmax, median
reported_property: Tmax (h)
Answers are plain numbers, in h.

Notebook: `C[C@H]1c2cccc(CCC(C)(C)O)c2C[C@H](CO)N1C(=O)Cc1c(Cl)cccc1Cl` , Tmax read as 2

---

method_notes: HBEA Part B cerebrospinal fluid (CSF) pharmacokinetics after a single dose
Type: in vivo, human
details: both sexes, human, CSF; read-out: CSF t1/2 (converted)
reported_property: half-life

Measured half-life, `C[C@H]1c2cccc(CCC(C)(C)O)c2C[C@H](CO)N1C(=O)Cc1c(Cl)cccc1Cl` : 8 h

---

method_notes: HBEC Part A pharmacokinetics, healthy subjects
Type: in vivo, human
details: human, in vivo, oral, Day 14, LY 15 mg (N = 9), geometric mean, read-out: AUC(0-24)
reported_property: AUC(0-t) (ng·h/mL)
Numbers only, in ng·h/mL.

// AUC(0-t) value for `C[C@H]1c2cccc(CCC(C)(C)O)c2C[C@H](CO)N1C(=O)Cc1c(Cl)cccc1Cl` : 492

---

method_notes: HBEC Part B pharmacokinetics, participants with PD
Type: in vivo, human
details: human, in vivo, oral, 75 mg, participants with PD, Day 14, LY 75 mg Titration (N = 8), geometric mean
reported_property: Cmax (ng/mL)
One number for each entry, in ng/mL.

Kindly note the recorded Cmax for C[C@H]1c2cccc(CCC(C)(C)O)c2C[C@H](CO)N1C(=O)Cc1c(Cl)cccc1Cl [LY3154207] , which is 400

---

method_notes: HBEA Part B cerebrospinal fluid (CSF) pharmacokinetics after a single dose
Assay type: in vivo, human
details: both sexes, human, CSF, 25 mg and 75 mg; read-out: share of total plasma exposure available in CSF
reported_property: Kp

Note to self: Kp recorded for C[C@H]1c2cccc(CCC(C)(C)O)c2C[C@H](CO)N1C(=O)Cc1c(Cl)cccc1Cl [LY3154207] was ~0.01

---

method_notes: HBEC Part A pharmacokinetics, healthy subjects
Assay type: in vivo, human
details: human, in vivo, oral, Day 14, LY 30 mg (N = 9), geometric mean, read-out: AUC(0-24)
reported_property: AUC(0-t) (ng·h/mL)
One number for each entry, in ng·h/mL.

Per the record, C[C@H]1c2cccc(CCC(C)(C)O)c2C[C@H](CO)N1C(=O)Cc1c(Cl)cccc1Cl [LY3154207] has AUC(0-t) of 1240
